Assay: amyloid nucleation score (Sup35N fusion, yeast selection) (log enrichment); library NNK1; higher = more nucleation; inactive = no reads after selection;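 further: zero at mode of non-aggregating sequences after 7 days selection at 30°C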
Measurement Type: amyloid nucleation score
I only need the number, thanks.

# annotated cases, reported amyloid nucleation score shown
[[record]]
biopolymer_sequence = "DYALYYGVASNRFFGLFRSP"
measurement_type = "amyloid nucleation score"
measured_number = 0.642

[[record]]
biopolymer_sequence = "GEGSCGVSLSSMYLQWGARV"
measurement_type = "amyloid nucleation score"
measured_number = -0.663

[[record]]
biopolymer_sequence = "DHPCTTWVLPSYGPEDPLPC"
measurement_type = "amyloid nucleation score"
measured_number = 0.175

[[record]]
biopolymer_sequence = "KDVMYTYFIAISDLGIRNPL"
measurement_type = "amyloid nucleation score"
measured_number = 1.3

[[record]]
biopolymer_sequence = "YFYDLSRCLFIHCTVGSQIL"
measurement_type = "amyloid nucleation score"
measured_number = 7.77

[[record]]
biopolymer_sequence = "LQFNSLAVLGVPGEMNEQTG"
measurement_type = "amyloid nucleation score"
measured_number = -0.228


// lookup amyloid nucleation score for VLMMVLGRWDTSSVMFIMMV
0.343

// lookup amyloid nucleation score for GVGWVDGWSGSCFHWTGWCT
3.46

----------
Assay: amyloid nucleation score (Sup35N fusion, yeast selection) (log enrichment); library NNK2; higher = more nucleation; inactive = no reads after selection
Measurement Type: amyloid nucleation score
I only need the number, thanks.

[[record]]
substance = "IPYLDYMTMH"
measured_number = 0.082

[[record]]
substance = "YASCLSSKLCDEDNPTYW"
measured_number = -0.488

[[record]]
substance = "WLPMYL"
measured_number = 0.194


// lookup amyloid nucleation score for IFIPSFWGIFTIPM
-1.01

----------
This section presents substances with their documented amyloid nucleation score values.
Assay: amyloid nucleation score (Sup35N fusion, yeast selection) (log enrichment); library NNK2; higher = more nucleation; inactive = no reads after selection
I only need the number, thanks.

# annotated cases, reported amyloid nucleation score shown
[[record]]
substance = "VGLFNVTLAFVLYGSSRLVL"
measurement_type = "amyloid nucleation score"
measured_number = 4.12

[[record]]
substance = "QYQKIIWISCSIPMQMTISA"
measurement_type = "amyloid nucleation score"
measured_number = -0.097

[[record]]
substance = "LFFDTCRIPRSYWSCLEEES"
measurement_type = "amyloid nucleation score"
measured_number = -0.206

[[record]]
substance = "LGLPNNGL"
measurement_type = "amyloid nucleation score"
measured_number = -0.187

[[record]]
substance = "ALHSWFRMSSLSMYIVDMGG"
measurement_type = "amyloid nucleation score"
measured_number = -0.077


// lookup amyloid nucleation score for LRFYERDILSILLFLMMMFV
-1.07

// lookup amyloid nucleation score for TKTILRILSQFIYDSPLLEM
-0.19

// lookup amyloid nucleation score for RTCDDA
0.294

// lookup amyloid nucleation score for VFWLNGWYCYI
3.65

// lookup amyloid nucleation score for RTCHGHYFLMM
0.683

----------
Test: amyloid nucleation score (Sup35N fusion, yeast selection) (log enrichment); library NNK2; higher = more nucleation; inactive = no reads after selection
Measurement Type: amyloid nucleation score

[[record]]
biopolymer_sequence = "HIFVVGMDRSVVSRSVEP"
result = "inactive"

[[record]]
biopolymer_sequence = "IDERATSEDSSGRKDSVTFL"
result = -0.306

[[record]]
biopolymer_sequence = "NVLQLDPFFAYSVRCILGSE"
result = "inactive"

